Provide the recorded kinase still bound, per cent of control for the entries that follow.
target: FGFR1 (human) (UniProt P11362); test: KINOMEscan competition binding; conditions: compound 10.0 µM
Sequence (P11362 whole entry, looked up): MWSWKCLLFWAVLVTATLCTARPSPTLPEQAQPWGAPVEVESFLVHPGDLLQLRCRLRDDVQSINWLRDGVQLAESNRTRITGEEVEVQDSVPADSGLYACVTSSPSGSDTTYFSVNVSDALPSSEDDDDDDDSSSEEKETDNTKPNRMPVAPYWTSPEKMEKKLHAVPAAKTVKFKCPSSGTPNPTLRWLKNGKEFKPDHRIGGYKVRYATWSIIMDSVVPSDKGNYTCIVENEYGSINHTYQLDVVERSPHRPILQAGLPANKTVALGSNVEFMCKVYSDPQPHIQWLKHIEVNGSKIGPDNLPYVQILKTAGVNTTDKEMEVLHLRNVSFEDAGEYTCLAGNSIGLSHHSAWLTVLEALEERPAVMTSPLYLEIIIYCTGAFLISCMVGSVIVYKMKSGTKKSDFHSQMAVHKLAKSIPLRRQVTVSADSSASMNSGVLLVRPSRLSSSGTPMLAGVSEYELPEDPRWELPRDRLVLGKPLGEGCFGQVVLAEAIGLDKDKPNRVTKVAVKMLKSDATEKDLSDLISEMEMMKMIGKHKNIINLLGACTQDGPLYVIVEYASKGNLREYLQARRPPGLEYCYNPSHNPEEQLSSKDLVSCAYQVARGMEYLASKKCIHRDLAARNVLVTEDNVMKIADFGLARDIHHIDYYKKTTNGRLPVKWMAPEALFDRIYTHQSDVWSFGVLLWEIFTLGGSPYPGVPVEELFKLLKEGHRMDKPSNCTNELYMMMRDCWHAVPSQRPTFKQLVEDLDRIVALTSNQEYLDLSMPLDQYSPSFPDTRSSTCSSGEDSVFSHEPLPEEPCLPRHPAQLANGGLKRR
Numbers only, in %.

Study these solved cases before continuing.
CCOc1cc(N2CCC(N3CCCCC3)CC2)ccc1Nc1nc(Nc2ccccc2S(=O)(=O)C(C)C)c2cn[nH]c2n1 :: 100
CCN1CCN(Cc2ccc(NC(=O)c3ccc(C)c(/C=C/c4cnc(Nc5cc(N6CCNCC6)nc(C)n5)cn4)c3)cc2C(F)(F)F)CC1 :: 1.6
COc1cc(N2CCC(N3CCN(C)CC3)CC2)ccc1Nc1ncc(Cl)c(Nc2ccccc2S(=O)(=O)C(C)C)n1 :: 0

Now for a further compound.
Problem: Which kinase still bound, per cent of control is reported with FGFR1 (human) (UniProt P11362) for this entry: `CCN1CCN(Cc2ccc(NC(=O)c3ccc(C)c(Oc4ccnc5[nH]ccc45)c3)cc2C(F)(F)F)CC1` ?
Result: 1.7

----------
test system: FGFR3 (human), P22607 [G697C]; assay: KINOMEscan competition binding; settings: compound 10.0 µM
Sequence (P22607 whole entry G697C, looked up): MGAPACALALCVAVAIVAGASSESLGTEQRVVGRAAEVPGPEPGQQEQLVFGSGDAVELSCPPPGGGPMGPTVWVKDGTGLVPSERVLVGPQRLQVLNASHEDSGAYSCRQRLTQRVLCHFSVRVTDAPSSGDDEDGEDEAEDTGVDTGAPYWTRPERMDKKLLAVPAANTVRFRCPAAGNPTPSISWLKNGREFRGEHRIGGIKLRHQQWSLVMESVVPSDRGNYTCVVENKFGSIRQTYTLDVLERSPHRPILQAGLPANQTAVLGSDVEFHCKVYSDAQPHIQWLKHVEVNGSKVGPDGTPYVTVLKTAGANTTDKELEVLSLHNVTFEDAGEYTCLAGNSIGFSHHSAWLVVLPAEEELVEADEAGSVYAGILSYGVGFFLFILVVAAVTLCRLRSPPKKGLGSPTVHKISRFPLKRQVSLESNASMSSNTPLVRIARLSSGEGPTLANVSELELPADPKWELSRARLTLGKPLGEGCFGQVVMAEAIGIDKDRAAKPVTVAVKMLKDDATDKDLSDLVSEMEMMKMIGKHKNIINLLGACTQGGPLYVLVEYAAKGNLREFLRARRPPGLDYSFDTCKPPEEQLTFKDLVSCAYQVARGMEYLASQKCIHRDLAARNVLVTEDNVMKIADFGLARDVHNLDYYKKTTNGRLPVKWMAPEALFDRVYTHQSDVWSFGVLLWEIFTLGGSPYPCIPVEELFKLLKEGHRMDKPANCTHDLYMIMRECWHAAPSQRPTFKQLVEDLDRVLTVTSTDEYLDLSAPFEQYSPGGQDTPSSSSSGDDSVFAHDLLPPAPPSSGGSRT
Quantity Name: kinase still bound, per cent of control (%)
Numbers only, in %.

Study these solved cases before continuing.
CCOc1cc(N2CCC(N3CCCCC3)CC2)ccc1Nc1nc(Nc2ccccc2S(=O)(=O)C(C)C)c2cn[nH]c2n1 :: 97
COc1cc(N2CCC(N3CCN(C)CC3)CC2)ccc1Nc1ncc(Cl)c(Nc2ccccc2S(=O)(=O)C(C)C)n1 :: 0.25
CCN1CCN(Cc2ccc(NC(=O)c3ccc(C)c(Oc4ccnc5[nH]ccc45)c3)cc2C(F)(F)F)CC1 :: 16

Now for a further compound.
Problem: Requested field: kinase still bound, per cent of control. Item: `CCN1CCN(Cc2ccc(NC(=O)c3ccc(C)c(/C=C/c4cnc(Nc5cc(N6CCNCC6)nc(C)n5)cn4)c3)cc2C(F)(F)F)CC1`
Result: 23

----------
target: MAPK9 (human) (UniProt P45984); test: KINOMEscan competition binding; settings: compound 10.0 µM
Sequence (P45984 whole entry, looked up): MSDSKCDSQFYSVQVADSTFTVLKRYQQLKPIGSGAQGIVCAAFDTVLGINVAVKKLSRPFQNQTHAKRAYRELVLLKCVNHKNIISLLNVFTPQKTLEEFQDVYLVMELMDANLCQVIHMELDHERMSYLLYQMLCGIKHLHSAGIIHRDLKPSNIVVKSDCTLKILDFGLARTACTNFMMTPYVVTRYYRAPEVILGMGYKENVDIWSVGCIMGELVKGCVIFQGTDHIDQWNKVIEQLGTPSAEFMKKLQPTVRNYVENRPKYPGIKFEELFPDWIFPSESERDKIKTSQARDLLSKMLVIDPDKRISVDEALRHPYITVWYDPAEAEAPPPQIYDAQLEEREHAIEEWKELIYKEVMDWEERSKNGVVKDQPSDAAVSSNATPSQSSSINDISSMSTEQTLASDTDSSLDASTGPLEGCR
Provide the recorded kinase still bound, per cent of control for the entries that follow.
Answers are plain numbers, in %.

Study these solved cases before continuing.
CCOc1cc(N2CCC(N3CCCCC3)CC2)ccc1Nc1nc(Nc2ccccc2S(=O)(=O)C(C)C)c2cn[nH]c2n1 :: 22
COc1cc(N2CCC(N3CCN(C)CC3)CC2)ccc1Nc1ncc(Cl)c(Nc2ccccc2S(=O)(=O)C(C)C)n1 :: 12
CCN1CCN(Cc2ccc(NC(=O)c3ccc(C)c(/C=C/c4cnc(Nc5cc(N6CCNCC6)nc(C)n5)cn4)c3)cc2C(F)(F)F)CC1 :: 0.7

Now for a further compound.
Problem: Requested field: kinase still bound, per cent of control. Item: `CCN1CCN(Cc2ccc(NC(=O)c3ccc(C)c(Oc4ccnc5[nH]ccc45)c3)cc2C(F)(F)F)CC1`
Result: 0

----------
molecular target: CaMK1 (human); test: KINOMEscan competition binding; details: compound 10.0 µM
Quantity Name: kinase still bound, per cent of control (%)
Numbers only, in %.

CCN1CCN(Cc2ccc(NC(=O)c3ccc(C)c(/C=C/c4cnc(Nc5cc(N6CCNCC6)nc(C)n5)cn4)c3)cc2C(F)(F)F)CC1 :: 90

Hi! Can you tell me kinase still bound, per cent of control for each of these compounds?
1. CCOc1cc(N2CCC(N3CCCCC3)CC2)ccc1Nc1nc(Nc2ccccc2S(=O)(=O)C(C)C)c2cn[nH]c2n1
2. CCN1CCN(Cc2ccc(NC(=O)c3ccc(C)c(Oc4ccnc5[nH]ccc45)c3)cc2C(F)(F)F)CC1

Result:
1: 4.6; 2: 0

Problem: Which kinase still bound, per cent of control is reported with CaMK1 (human) for this entry: `COc1cc(N2CCC(N3CCN(C)CC3)CC2)ccc1Nc1ncc(Cl)c(Nc2ccccc2S(=O)(=O)C(C)C)n1` ?
Result: 1.4
